Listing: binding signal (min (mean binding lifetime)) of selected sequences
# EXPERIMENTAL_TARGET: dCas9 D10A;H840A (UniProt Q99ZW2)
# PROCEDURE_SUMMARY: single-molecule TIRF
# MEASUREMENT_PARAMETERS: 3'-biotin on strand 2, SPR: 25 mM Tris-HCl pH 7.6, 50 mM NaCl, 5 mM MgCl2, 0.25 mM DTT, 0.2 mM EDTA, 0.005% P20, 20 C, single-molecule: 25 mM Tris-HCl pH 7.9, 10 mM Mg acetate
Answer with a number only.

For orientation, consider the following solved cases.
In: For the sequence shown here, CACATGCTATGAGCTGTTGCAATCTCTCGTACAATTAATAGACTGGATGGTGGATGACAAAGCTCTACACTAGATACTCACAC (double strand) [gRNA40 / 83-mer target] , give the reported binding signal (min (mean binding lifetime)).
Out: 1

In: For the sequence shown here, CACATGCTATGAGCTGTTGCAATCTCTCGTACAATTAATAGACTGGATGGTGGATGACAAAGCTCTACACTAGATACTCACAC (double strand) [gRNA60 / 83-mer target] , give the reported binding signal (min (mean binding lifetime)).
Out: 8.3

In: For the sequence shown here, CACATGCTATGAGCTGTTGCAATCTCTCGTACAATTAATAGACTGGATGGTGGATGACAAAGCTCTACACTAGATACTCACAC (double strand) [gRNA20 / 83-mer target] , give the reported binding signal (min (mean binding lifetime)).
Out: 1

Consider the record given below.
In: For the sequence shown here, CACATGCTATGAGCTGTTGCAATCTCTCGTACAATTAATAGACTGGATGGTGGATGACAAAGCTCTACACTAGATACTCACAC (double strand) [gRNA80 / 83-mer target] , give the reported binding signal (min (mean binding lifetime)).
Out: 8.6
